- Experiment: Cytotoxicity against human MT4 cells assessed as reduction in cell viability by MTT assay
- Format: toxicity, cell-based
This listing pairs compounds with measured CC50.

Smiles string: Cc1ccnc2c1NC(=O)c1cccnc1N2C1CC1
CC50: > 15 µM

Smiles string: [2H]C([2H])([2H])c1cc(C#N)cc(C([2H])([2H])[2H])c1Oc1nc(NC2CCN(Cc3ccc(C(N)=O)cc3)CC2)nc2sccc12
CC50: > 241 µM

Smiles string: [2H]C([2H])([2H])c1cc(C#N)cc(C)c1Oc1nc(NC2CCN(Cc3ccc(C(N)=O)cc3)CC2)nc2sccc12
CC50: > 242 µM

Smiles string: Cc1cc(C#N)cc(C)c1Oc1nc(Nc2ccc(C#N)cc2)nc(N)c1Br
CC50: > 4.6 µM

Smiles string: [2H]C([2H])([2H])c1cc(C#N)cc(C([2H])([2H])[2H])c1Oc1nc(NC2CCN(Cc3ccc(S(N)(=O)=O)cc3)CC2)nc2ccsc12
CC50: > 225 µM

Smiles string: [2H]C([2H])([2H])c1cc(C#N)cc(C)c1Oc1nc(NC2CCN(Cc3ccc(C(N)=O)cc3)CC2)nc2scnc12
CC50: 22 µM

----------
This listing pairs compounds with measured CC50.
- Experiment: Cytotoxicity against human MT4 cells assessed as reduction in cell viability by MTT assay
- Format: toxicity, cell-based

Smiles string: [2H]C([2H])([2H])c1cc(C#N)cc(C)c1Oc1nc(NC2CCN(Cc3ccc(S(N)(=O)=O)cc3)CC2)nc2ccsc12
Unit label: µM
Modifier sign: =
CC50: 178

Smiles string: Cc1cc(-c2ccc(C#N)cc2)cc(C)c1Nc1ccnc(Nc2ccc(C#N)cc2)n1
Unit label: µM
Modifier sign: =
CC50: 6.11

Smiles string: [2H]C([2H])([2H])c1cc(C#N)cc(C([2H])([2H])[2H])c1Oc1nc(NC2CCN(Cc3ccc(S(N)(=O)=O)cc3)CC2)nc2scnc12
Unit label: µM
Modifier sign: =
CC50: 17.9

Smiles string: [2H]C([2H])([2H])c1cc(C#N)cc(C)c1Oc1nc(NC2CCN(Cc3ccc(C(N)=O)cc3)CC2)nc2ccsc12
Unit label: µM
Modifier sign: >
CC50: 242

----------
- Test system: Human immunodeficiency virus 1
- Experiment: Antiviral activity against wild-type HIV-1 IIIB infected in human MT4 cells assessed as protection against virus-induced cytopathicity measured after 5 days post-infection by MTT assay
- Type: functional, organism-based
- Setup conditions: Human immunodeficiency virus 1, IIIB, MT4, 120 h
This listing pairs compounds with measured EC50.

Smiles string: [2H]C([2H])([2H])c1cc(C#N)cc(C)c1Oc1nc(NC2CCN(Cc3ccc(S(N)(=O)=O)cc3)CC2)nc2ccsc12
Unit label: nM
EC50: 5.77

Smiles string: [2H]C([2H])([2H])c1cc(/C=C/C#N)cc(C([2H])([2H])[2H])c1Nc1ccnc(Nc2ccc(C#N)cc2)n1
Unit label: nM
EC50: 1.41

Smiles string: Cc1ccnc2c1NC(=O)c1cccnc1N2C1CC1
Unit label: nM
EC50: 253

Smiles string: [2H]C([2H])([2H])c1cc(C#N)cc(C([2H])([2H])[2H])c1Oc1nc(NC2CCN(Cc3ccc(C(N)=O)cc3)CC2)nc2sccc12
Unit label: nM
EC50: 4.19

Smiles string: [2H]C([2H])([2H])c1cc(C#N)cc(C([2H])([2H])[2H])c1Oc1nc(NC2CCN(Cc3ccc(S(N)(=O)=O)cc3)CC2)nc2scnc12
Unit label: nM
EC50: 2.16

Smiles string: [2H]C([2H])([2H])c1cc(C#N)cc(C)c1Oc1nc(NC2CCN(Cc3ccc(S(N)(=O)=O)cc3)CC2)nc2sccc12
Unit label: nM
EC50: 6.39

Smiles string: [2H]C([2H])([2H])c1cc(-c2ccc(C#N)cc2)cc(C)c1Nc1ccnc(Nc2ccc(C#N)cc2)n1
Unit label: nM
EC50: 2.5

Smiles string: [2H]C([2H])([2H])c1cc(-c2ccc(C#N)cc2)cc(C([2H])([2H])[2H])c1Nc1ccnc(Nc2ccc(C#N)cc2)n1
Unit label: nM
EC50: 1.83

Smiles string: [2H]C([2H])([2H])c1cc(C#N)cc(C([2H])([2H])[2H])c1Oc1nc(NC2CCN(Cc3ccc(S(N)(=O)=O)cc3)CC2)nc2ccccc12
Unit label: nM
EC50: 5.47

Smiles string: [2H]C([2H])([2H])c1cc(C#N)cc(C([2H])([2H])[2H])c1Oc1nc(NC2CCN(Cc3ccc(C(N)=O)cc3)CC2)nc2ccsc12
Unit label: nM
EC50: 5.11

Smiles string: Cc1cc(/C=C/C#N)cc(C)c1Nc1ccnc(Nc2ccc(C#N)cc2)n1
Unit label: nM
EC50: 1.27

Smiles string: [2H]C([2H])([2H])c1cc(C#N)cc(C([2H])([2H])[2H])c1Oc1nc(NC2CCN(Cc3ccc(S(N)(=O)=O)cc3)CC2)nc2sccc12
Unit label: nM
EC50: 6.53

Smiles string: [2H]C([2H])([2H])c1cc(C#N)cc(C)c1Oc1nc(NC2CCN(Cc3ccc(C(N)=O)cc3)CC2)nc2ccsc12
Unit label: nM
EC50: 12.8

Smiles string: [2H]C([2H])([2H])c1cc(C#N)cc(C([2H])([2H])[2H])c1Oc1nc(NC2CCN(Cc3ccc(C(N)=O)cc3)CC2)nc2scnc12
Unit label: nM
EC50: 2.36

Smiles string: [2H]C([2H])([2H])c1cc(C#N)cc(C)c1Oc1nc(NC2CCN(Cc3ccc(C(N)=O)cc3)CC2)nc2scnc12
Unit label: nM
EC50: 2.03

Smiles string: [2H]C([2H])([2H])c1cc(C#N)cc(C)c1Oc1nc(NC2CCN(Cc3ccc(C(N)=O)cc3)CC2)nc2ccccc12
Unit label: nM
EC50: 5.4

Smiles string: [2H]C([2H])([2H])c1cc(C#N)cc(C)c1Oc1nc(NC2CCN(Cc3ccc(C(N)=O)cc3)CC2)nc2sccc12
Unit label: nM
EC50: 8.92

Smiles string: [2H]C([2H])([2H])c1cc(C#N)cc(C([2H])([2H])[2H])c1Oc1nc(NC2CCN(Cc3ccc(S(N)(=O)=O)cc3)CC2)nc2ccsc12
Unit label: nM
EC50: 0.99

Smiles string: Cc1cc(-c2ccc(C#N)cc2)cc(C)c1Nc1ccnc(Nc2ccc(C#N)cc2)n1
Unit label: nM
EC50: 1.86

Smiles string: [2H]C([2H])([2H])c1cc(/C=C/C#N)cc(C)c1Nc1ccnc(Nc2ccc(C#N)cc2)n1
Unit label: nM
EC50: 1.17

Smiles string: [2H]C([2H])([2H])c1cc(C#N)cc(C)c1Oc1nc(NC2CCN(Cc3ccc(S(N)(=O)=O)cc3)CC2)nc2scnc12
Unit label: nM
EC50: 2.8

Smiles string: [2H]C([2H])([2H])c1cc(C#N)cc(C)c1Oc1nc(NC2CCN(Cc3ccc(S(N)(=O)=O)cc3)CC2)nc2ccccc12
Unit label: nM
EC50: 3.07

Smiles string: [2H]C([2H])([2H])c1cc(C#N)cc(C([2H])([2H])[2H])c1Oc1nc(NC2CCN(Cc3ccc(C(N)=O)cc3)CC2)nc2ccccc12
Unit label: nM
EC50: 7.31
